MEASUREMENT_PROTOCOL: In vitro plasma stability, human plasma
Assay type: in vitro ADME
RUN_PARAMETERS: male, pH 7.4, 5 μM, 37° C., sampling 0-360 minutes, read-out: T1/2 Human
Description: Certain compounds from Table 1 were tested for their stability in plasma. The assay system comprised plasma from rat, dog or human (at least 3 donors, male, pooled) at pH 7.4, and (ii) an anticoagulant (sodium heparin or sodium citrate). Each test compound (5 μM) was incubated in plasma at 37° C. on a THERMOMIXER® with shaking. […] Plasma half-lives (T1/2) of the test compounds were determined from graphs of the percent remaining values using the peak area response ratio.
Output true for half-life at 5 μM not less than 40 min; output false otherwise.

1. CC1=NN(C)C(=O)C1(NO)c1ccc(S(C)(=O)=O)cc1 (centres unmarked) [Compound 37]; false
2. CC(C)S(=O)(=O)c1ccc(C2=NN(C)C(=O)C2(C)NO)cc1 (centres unmarked) [Compound 78]; true
3. CN1N=C(c2ccc(C(N)=O)cc2)C(C)(NO)C1=O (centres unmarked) [Compound 92]; true
4. CN1N=C(c2ccc(C(=O)N3CCC(F)(F)CC3)cc2)C(C)(NO)C1=O (centres unmarked) [Compound 85]; true
5. CCOC1=NN(c2ccccc2)C(=O)C1(NO)/C(C)=N/OC (centres unmarked) [Compound 110]; false
6. CN1N=C(c2ccc(C(F)(F)F)cc2)C(C)(NO)C1=O (centres unmarked) [Compound 4]; false
7. CN1N=C(c2ccccc2F)C(C)(NO)C1=O (centres unmarked) [Compound 3]; false
8. COc1ccc(C2=NN(C)C(=O)C2(C)NO)cc1 (centres unmarked) [Compound 53]; true
9. CC(C)N1N=C(c2ccccc2F)C(C)(NO)C1=O (centres unmarked) [Compound 26]; true
10. CN1N=C(c2ccccc2)C(NO)(c2ccccc2)C1=O (centres unmarked) [Compound 109]; false
11. CO/N=C(\C)C1(NO)C(=O)N(C)N=C1c1ccccc1 (centres unmarked) [Compound 46]; false
12. COC(=O)c1ccc(C2=NN(C)C(=O)C2(C)NO)cc1 (centres unmarked) [Compound 71]; true
13. CO/N=C(\C)C1(NO)C(=O)N(C)N=C1c1ccc(F)cc1 (centres unmarked) [Compound 64]; false
14. CN1N=C(c2ccc(S(C)(=O)=NC(=O)C(F)(F)F)cc2)C(C)(NO)C1=O (centres unmarked) [Compound 72]; false
15. CC1=NN(c2ccccc2)C(=O)C1(NO)c1ccccc1 (centres unmarked) [Compound 24]; false
16. CCC1(NO)C(=O)N(C)N=C1c1ccccc1F (centres unmarked) [Compound 31]; true
17. COCCN(C)c1cc(C2=NN(C)C(=O)C2(C)NO)ccc1S(C)(=O)=O (centres unmarked) [Compound 83]; true
18. C[C@H](NC(=O)c1ccc(C2=NN(C)C(=O)C2(C)NO)cc1)C(=O)O (some centres unmarked) [Compound 94]; true
19. CN1N=C(c2ccc(S(C)(=O)=O)c(S(C)(=O)=O)c2)C(C)(NO)C1=O (centres unmarked) [Compound 104]; false
20. CN1N=C(c2ccc([S+]([O-])C(F)(F)F)cc2)C(C)(NO)C1=O (centres unmarked) [Compound 35]; true
21. C/C(=N\OC(C)(C)C)C1(NO)C(=O)N(C)N=C1C(C)(C)C (centres unmarked) [Compound 117]; false
22. CN1CCN(c2cc(C3=NN(C)C(=O)C3(C)NO)ccc2S(C)(=O)=O)CC1 (centres unmarked) [Compound 88]; true
23. CN1N=C(c2ccc(S(C)(=O)=O)c(C(F)(F)F)c2)C(C)(NO)C1=O (centres unmarked) [Compound 97]; false
24. CC1=NN(C)C(=O)C1(NO)c1ccc(Cl)cc1 (centres unmarked) [Compound 66]; false
25. CO/N=C(\C)C1(NO)C(=O)N(C)N=C1c1ccc(OC)cc1 (centres unmarked) [Compound 107]; false
26. CN1N=C(C(C)(C)C)C(NO)(c2ccccc2)C1=O (centres unmarked) [Compound 113]; false
27. CO/N=C(\C)C1(NO)C(=O)N(C)N=C1c1ccc(S(C)(=O)=O)cc1 (centres unmarked) [Compound 42]; false
28. CN1N=C(c2ccc(S(=O)(=O)N3CCC(F)(F)CC3)cc2)C(C)(NO)C1=O (centres unmarked) [Compound 114]; false
29. CO/N=C(\C)C1(NO)C(=O)NN=C1C(C)(C)C (centres unmarked) [Compound 131]; false
30. CN1N=C(c2ccc(F)cc2)C(C)(NO)C1=O (centres unmarked) [Compound 5]; true
31. CN1N=C(c2ccc(C(=O)O)cc2)C(C)(NO)C1=O (centres unmarked) [Compound 74]; true
32. CC1=NN(C)C(=O)C1(NO)/C(C)=N/OCC(C)C (centres unmarked) [Compound 105]; false
33. C/C(=N\OCc1ccccc1)C1(NO)C(=O)N(C)N=C1C(C)(C)C (centres unmarked) [Compound 115]; false
34. CN1N=C(c2ccc(S(=O)(=O)C(F)(F)F)cc2)C(C)(NO)C1=O (centres unmarked) [Compound 34]; false
35. CCOC1=NN(C)C(=O)C1(NO)/C(C)=N/OC (centres unmarked) [Compound 126]; false
